Tested on: A549 NSCLC
Experiment: NCI tumour cell line growth inhibition, 48 h
Collected TGI values appear next to each entry.

COMPOUND: CCC/C(Cl)=N/OC(=O)Nc1cc(C(F)(F)F)ccc1OC
TGI: 34.6 µM
//
COMPOUND: C=CC(=O)N1C[C@@H]2CCOc3c(Cl)c(-c4c(O)cccc4F)c(F)c4ncnc(c34)N2C[C@H]1C
TGI: 34.7 µM
//
COMPOUND: CC(=O)OCCOCNC(=S)N/N=C/c1cc([N+](=O)[O-])ccc1O
TGI: > 100 µM
//
COMPOUND: O=C1Cc2nc(CO)c(CO)c(CO)c2CO1
TGI: > 100 µM
//
COMPOUND: COc1cc(CC2c3cc(OC)c(OC)cc3CCN2C)ccc1O (stereo not given)
TGI: > 100 µM
//
COMPOUND: O=C(O)CC(NC(=O)/C(=C/c1ccccc1)NC(=O)c1ccccc1)C(=O)O (stereo not given)
TGI: > 100 µM
//
COMPOUND: COc1ccc(C2ON(c3ccccc3)CC=C2C)cc1 (stereo not given)
TGI: > 100 µM
//
COMPOUND: Clc1cc(Cl)c(OCCCCCCN2CCNCC2)c(Cl)c1
TGI: 25.3 µM
//
COMPOUND: O=C(NCCCNCCN1C(=O)c2cccc3cc([N+](=O)[O-])cc(c23)C1=O)c1cc(-c2ccccc2)nc2ccccc12
TGI: 15.7 µM
//
COMPOUND: CN(C)CCNC(=O)c1cc(Cl)cc2cc3ccccc3nc12
TGI: 3.88 µM
//
COMPOUND: N#CC1=C2SCCN2C(=O)C(C#N)C12CCCCC2 (stereo not given)
TGI: > 100 µM
//
COMPOUND: O=C(NNC1=NCCCN1)c1ccco1
TGI: > 100 µM
//
COMPOUND: Cc1ccc(Cc2nn(C)c(=O)n2N)cc1
TGI: > 100 µM
//
COMPOUND: COC(=O)c1ncc2c(=O)[nH]c3ccccc3c2c1C(=O)OC
TGI: > 100 µM
//
COMPOUND: CCOC(=O)C(NC(C)=O)(Nc1ccc(S(N)(=O)=O)cc1)C(F)(F)F (stereo not given)
TGI: > 100 µM

---

Test system: 786-0 renal
Test: NCI tumour cell line growth inhibition, 48 h

COMPOUND: CC(NCc1c(O)ccc2ccc(=O)oc12)C(=O)O (centres undefined)
TGI: > 100 µM
//
COMPOUND: C[C@@H]1C(=O)O[C@H]1[C@H](O)CO
TGI: > 100 µM
//
COMPOUND: O=C1C2CCCCC2C(=O)N1n1c(-c2ccccc2)n[nH]c1=O (centres undefined)
TGI: > 100 µM
//
COMPOUND: CC(=O)c1cc2c(s1)C(=O)c1sccc1C2=O
TGI: 0.421 µM
//
COMPOUND: O=c1[nH]c(=O)n(C2CC(O)C(CO)O2)cc1C(F)(C(F)(F)F)C(F)(F)F (centres undefined)
TGI: > 100 µM
//
COMPOUND: O=C(Oc1c(Cl)cc(C2(c3cc(Cl)c(OC(=O)c4ccccc4)c(Cl)c3)CCCCC2)cc1Cl)c1ccccc1
TGI: 27.5 µM
//
COMPOUND: OCC(O)CNc1ncnc2ccccc12 (centres undefined)
TGI: > 100 µM
//
COMPOUND: CC[C@]12C=CCN3CCC4(c5cc([C@@]6(C(=O)OC)CC7CN(CCc8c6[nH]c6ccccc86)C[C@@H]6CCCC[C@H]76)c(OC)cc5N(C)C4[C@](O)(C(=O)OC)C1OC(C)=O)[C@@H]32 (some centres undefined)
TGI: 12.5 µM
//
COMPOUND: Oc1ccc2c3c1OC1c4[nH]ncc4C[C@H]4[C@@H](C2)N(CC2CC2)CC[C@]314 (some centres undefined)
TGI: > 100 µM
